# target-under-test: T1, recombinant, soluble human ASGR-1 (human, UniProt P07306 62-291)
# T1 construct: biotinylated in the binning assay; also called soluble huASGR-1; Soluble ASGR-1 (Amgen)
# T1 sequence: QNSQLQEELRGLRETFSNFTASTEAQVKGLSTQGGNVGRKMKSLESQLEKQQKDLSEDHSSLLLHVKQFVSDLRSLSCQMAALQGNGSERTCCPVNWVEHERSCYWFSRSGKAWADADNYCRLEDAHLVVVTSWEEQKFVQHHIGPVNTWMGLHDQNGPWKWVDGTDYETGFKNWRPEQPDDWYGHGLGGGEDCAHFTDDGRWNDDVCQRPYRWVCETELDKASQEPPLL
# test-summary: Octet BLI dissociation, pH 5.6 minus calcium
readout-type: % Change Compared to pH 7.4 + Calcium (%)
Provide only the numeric value, understood in %.

The cases that follow already have their % Change Compared to pH 7.4 + Calcium on record.
binder	% Change Compared to pH 7.4 + Calcium (%)
60E8 (antibody, V domains shown, hybridoma mAb) VH: QVQLQESGPGLVRPSATLSLTCTVSGGSISRSSYYWGWIRQPPGKGLEWIGSIYYSGSASYNPSLKSRVTISVDTSENQFSLRLSSVTAADTAVYYCARLDSGWSFDYWGQGTLVTVSS VL: DIQMTQSPSSLSASVGDRVTFTCRASQGIRNDLGWFQQKPGKAPKRLIYAASSLQSGVPSRFSGSGSGTEFTLTISSLQPEDFATYYCLQHSSYPLTFGGGTKVEIK	18
190G11 (antibody, V domains shown, hybridoma mAb) VH: QVQLVESGGGVVQPGRSLRLSCAASGFTFSIYGMHWVRQAPGKGLEWVAVIWYDGSNKNYADSVKGRFTISRDNSKNTLYLQMNSLRAEDTAVYYCARDQGVGYDGLDVWGQGTTVTVSS VL: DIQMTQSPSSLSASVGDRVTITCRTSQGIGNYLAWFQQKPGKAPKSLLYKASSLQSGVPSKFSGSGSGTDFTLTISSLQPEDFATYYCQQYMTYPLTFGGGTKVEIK	-5

So, 190F12 (antibody, V domains shown, hybridoma mAb) VH: QVQLVESGGGVVQPGRSLRLSCAASGFTFRNYGMHWVRQAPGKGLEWVAVIWFDGSNDYYADSVKGRFTISRDNSKNTLSLQMNSLRAEDTAVYYCARDRSVGYDGLDVWGQGTTVTVSS VL: DIQMTQSPSSLSASVGDRVTITCRASQGIGKYLAWFQQKPGKAPKSLIYAASSLQSGVPSKFSGSGSGTDFTLTISSLQPDDFATYYCQRYDTYPFTFGPGTKVDIK ? Its % Change Compared to pH 7.4 + Calcium was -6
